target: PAN domain endonuclease (Influenza A virus, UniProt C3W5S0)
Values of IC50 strictly less than 400 nM map to fulfilled, and values of at least 400 nM map to not fulfilled.

{"structure-as-smiles": "N#Cc1ccc(-c2cc(O)c(O)c([N+](=O)[O-])c2-c2ccc(C#N)cc2)cc1", "answer-label": "fulfilled"}
{"structure-as-smiles": "Oc1cc(-c2ccc(F)cc2)c(-c2ccc(-c3nnn[nH]3)cc2)cc1O", "answer-label": "not fulfilled"}
{"structure-as-smiles": "O=[N+]([O-])c1c(O)c(O)cc(-c2ccc(F)cc2)c1-c1ccc(F)cc1", "answer-label": "not fulfilled"}
{"structure-as-smiles": "Oc1cc(-c2ccc(-c3nnn[nH]3)cc2)c(-c2ccc(-c3nnn[nH]3)cc2)cc1O", "answer-label": "not fulfilled"}
{"structure-as-smiles": "N#Cc1ccc(-c2cc(O)c(O)cc2-c2ccc(F)cc2)cc1", "answer-label": "fulfilled"}
